Experiment: gradient 5% acetonitrile 3 min, to 50% in 2 min, to 85% in 15 min, held 3 min, 100 µL/min
Conditions: column: Zorbax Extend-C18 2.1 x 50 mm; eluents: water / acetonitrile, 0.1% formic acid
property: RP-LC retention time (s)
Just the number please, in s, no unit attached.

Example entries and their recorded answers appear below.
In [3]: df
Out[3]:
                                   compound  test_value
0  Cc1ncc2c(n1)C[C@@H]1CC[C@H]2N1S(=O)(=O)c1ccc2c(c1)C(C)(C)C(=O)N2         636
1          C=CCNC(=O)c1ccc(-n2nc(C)cc2C)nc1         739
2  CCOC(=O)c1nc(Nc2ccc(OC)c(Cl)c2)c2ccccc2n1         886
3  COc1ccc(C(=O)Nc2nnc(SCc3nnc(-c4ccccc4C)o3)s2)cc1         966
4  O=C(c1cn(-c2cc(N3CCCCC3)ncn2)cn1)N1CC=C(c2ccccc2)CC1        1060

Identify measured RP-LC retention time associated with CCOC(=O)c1cccc(NC(=O)C2CCN(S(=O)(=O)c3ccc4[nH]c(=O)ccc4c3)CC2)c1
768

Identify measured RP-LC retention time associated with Cn1nccc1-c1cccc(-c2noc(-c3ccc(C#N)cc3)n2)c1
1050

Identify measured RP-LC retention time associated with CCC(C)NS(=O)(=O)c1cc(-c2nc(C)cs2)n(C)c1C (stereo not given)
905

Identify measured RP-LC retention time associated with CCc1cccc(N(C)C(N)=Nc2cccc3ccccc23)c1
846

Identify measured RP-LC retention time associated with COCCc1noc(C2CN(C(=O)Cn3ccnc3)C2)n1
580

* * *

Test: gradient 5% acetonitrile 3 min, to 50% in 2 min, to 85% in 15 min, held 3 min, 100 µL/min
Conditions: column: Zorbax Extend-C18 2.1 x 50 mm; eluents: water / acetonitrile, 0.1% formic acid
property: RP-LC retention time (s)
Just the number please, in s, no unit attached.

>>> df
                                smiles_code  unit  test_value
0  COCCCNC(=O)C1CCN(c2nccnc2Sc2cccc(C)c2)CC1     s         886
1  Cc1nn(C)c(C)c1CCCN(C)C(=O)COc1ccc(NC(=O)C2CC2)cn1     s         605
2   Cc1ccn2cc(C(=O)NCc3ccc(OC(C)C)cc3)nc2c1     s         713
3  O=C1NCCCCCCN(C(=O)c2cc(CN3CCOCC3)on2)[C@H]2CCCC[C@@H]12     s         621
4  Cc1cccc(-c2ncccc2CNS(=O)(=O)c2ccc(Cl)cc2)c1     s         778
5  COC(=O)c1cccc(NC(=O)CSc2nccc(N3CCN(c4ccc(OC)cc4)CC3)n2)c1     s         743
6  CCCCN1CCN(C(=O)c2cc(-c3ccncc3)cn2Cc2ccccc2C)CC1     s         576
7  CC(C)N1C(=O)c2cccnc2Sc2cc(NC(=O)Cc3cccs3)ccc21     s         834

Turning now to a further molecule:
Identify measured RP-LC retention time associated with O=c1n(Cc2ccc(F)cc2Cl)nc2ccc(S(=O)(=O)N3CCCC3)cn12
922
